# test-system: human PAR4 (Homo sapiens, UniProt Q96RI0)
# measurement-description: PAR4 FLIPR assay: antagonism of agonist-peptide-induced calcium mobilization in PAR4-expressing HEK293 cells
# experimental-conditions: H-Ala-Phe(4-F)-[…]NH2-induced intracellular calcium mobilization, 11-point curves
Quick reference for IC50 among some compounds
Report as a plain number; the unit nM is understood.

| molecule | value-measured |
| --- | --- |
| COc1cnc2c(-c3nc4cc(F)c(OC[C@@H](C)OC(=O)Nc5ccncc5)cc4s3)cc(C)cc2n1 | 2.7 |
| COc1ccc(C)c2nc(-c3cc(C)cc4nc(OC(F)F)cnc34)sc12 | 2 |
| COc1cnc2c(-c3nc4cc(F)c(O[C@@H](C)[C@@H](C)OC(=O)Nc5cnc(CO)nc5)nc4s3)cc(Cl)cc2c1 | 24 |

// switching to the query compound
Give reported IC50 value for COc1cnc2c(-c3nc4c(C)cc(OCCOC(=O)Nc5ccccc5)cc4s3)cc(C)cc2n1 12

----------
# test-system: human PAR4 (Homo sapiens, UniProt Q96RI0)
# measurement-description: PAR4 FLIPR assay: antagonism of agonist-peptide-induced calcium mobilization in PAR4-expressing HEK293 cells
# experimental-conditions: H-Ala-Phe(4-F)-[…]NH2-induced intracellular calcium mobilization, 11-point curves
property-measured: log10 IC50 (log10 of the value in nM)
Answers are given as log10 of IC50 in nM.

| molecule | value-measured |
| --- | --- |
| COc1cnc2c(-c3nc4cc(F)c(O[C@@H](C)[C@@H](C)OC(=O)Nc5cnc(C(=O)NC[C@H](C)O)nc5)cc4s3)cc(C)cc2n1 | -0.70 |
| COCc1ccc2nc(-c3cc(C)cc4nc(COC)cnc34)sc2c1 | 0.52 |
| COc1cnc2c(-c3nc4cc(F)c(OC[C@@H](C)OC(=O)Nc5ccc6[nH]c(=O)oc6c5)nc4s3)cc(C)cc2n1 | -0.15 |

Give reported log10 IC50 value for COCc1cnc2c(-c3nc4c(C)cc(OCCNS(=O)(=O)c5ccc(F)cc5)cc4s3)cc(C(=O)OC)cc2n1 1.71

Give reported log10 IC50 value for COCc1cnc2c(-c3nc4c(Cl)c(F)c(O)cc4s3)cc(C)cc2n1 1.04

Give reported log10 IC50 value for COc1cnc2c(-c3nc4c(C)cc(OC[C@@H](C)OC(=O)Nc5cncc(C#N)c5)nc4s3)cc(C)cc2n1 0.04

Give reported log10 IC50 value for CNC(=O)c1cc(NC(=O)O[C@H](C)COc2cc3sc(-c4cc(C)cc5nc(OC)cnc45)nc3cc2F)ccn1 -0.22

----------
# test-system: human PAR4 (Homo sapiens)
# Sequence (Q96RI0 18-385): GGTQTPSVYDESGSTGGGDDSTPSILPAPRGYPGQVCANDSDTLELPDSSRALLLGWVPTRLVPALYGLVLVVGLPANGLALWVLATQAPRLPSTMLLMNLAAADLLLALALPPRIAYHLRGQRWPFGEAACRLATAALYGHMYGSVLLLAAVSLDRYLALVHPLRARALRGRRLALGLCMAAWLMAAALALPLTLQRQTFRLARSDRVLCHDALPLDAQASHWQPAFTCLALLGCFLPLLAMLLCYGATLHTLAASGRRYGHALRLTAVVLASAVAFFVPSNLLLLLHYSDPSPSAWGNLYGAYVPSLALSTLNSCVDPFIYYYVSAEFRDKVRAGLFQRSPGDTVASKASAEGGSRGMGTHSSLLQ
# measurement-description: PAR4 FLIPR assay: antagonism of agonist-peptide-induced calcium mobilization in PAR4-expressing HEK293 cells
# experimental-conditions: H-Ala-Phe(4-F)-[…]NH2-induced intracellular calcium mobilization, 11-point curves
Rule: IC50 below 10 nM gives satisfied. Equal to or above 10 nM gives not satisfied.

Before answering, review these 3 worked examples.
| molecule | label |
| --- | --- |
| COc1cnc2c(-c3nc4cc(F)c(OC[C@@H](C)OC(=O)Nc5ccc(OCC(F)(F)CO)nc5)nc4s3)cc(C)cc2n1 | satisfied |
| COc1cnc2c(-c3nc4cc(F)c(O[C@@H](C)[C@@H](C)OC(=O)Nc5ccc(C(F)(F)F)nc5)cc4s3)cc(Cl)cc2c1 | satisfied |
| COCc1cnc2c(-c3nc4c(C(=O)O)cc(OC)cc4s3)cc(C)cc2n1 | not satisfied |

Is 10 nM strictly greater than the molecule's reported IC50? molecule: COc1cnc2c(-c3nc4cc(F)c(O[C@@H](C)[C@@H](C)OC(=O)Nc5cnc(C(=O)NC[C@@H](C)O)nc5)nc4s3)cc(C)cc2n1 not satisfied

Is 10 nM strictly greater than the molecule's reported IC50? molecule: COc1cnc2c(-c3nc4c(Cl)c(F)c(OC)cc4s3)cc(CO)cc2n1 satisfied

Is 10 nM strictly greater than the molecule's reported IC50? molecule: COc1cnc2c(-c3nc4cc(F)c(O[C@@H](C)[C@@H](C)OC(=O)Nc5ccc(C(=O)NCCC(C)(C)O)nc5)cc4s3)cc(C)cc2n1 [Example 446] satisfied

Is 10 nM strictly greater than the molecule's reported IC50? molecule: COCCOc1cccc2nc(-c3cc(C)cc4nc(OC)cnc34)sc12 not satisfied

Is 10 nM strictly greater than the molecule's reported IC50? molecule: COCc1cnc2c(-c3nc4c(C)cc(OC)cc4s3)nc(C)cc2c1 not satisfied

Is 10 nM strictly greater than the molecule's reported IC50? molecule: COc1cnc2c(-c3cc4cc(OCCOC(=O)Nc5ccnc(C)c5)cc(Cl)c4o3)cc(C)cc2n1 satisfied

Is 10 nM strictly greater than the molecule's reported IC50? molecule: COc1cnc2c(-c3nc4c(C)cc(OC[C@@H](C)OC(=O)Nc5cnc(F)c(C)c5)nc4s3)cc(C)cc2n1 satisfied

Is 10 nM strictly greater than the molecule's reported IC50? molecule: COc1cnc2c(-c3nc4cc(F)c(O[C@@H](C)[C@@H](C)OC(=O)Nc5cnc(NC(=O)c6ccc(F)c(Cl)c6)nc5)cc4s3)cc(C)cc2n1 not satisfied

Is 10 nM strictly greater than the molecule's reported IC50? molecule: COc1cnc2c(-c3nc4cc(F)c(OC[C@@H](C)OC(=O)Nc5ccc(C(=O)N6CCOC[C@H]6CO)nc5)cc4s3)cc(C)cc2n1 not satisfied

Is 10 nM strictly greater than the molecule's reported IC50? molecule: CCOc1cnc2c(-c3nc4cc(F)c(O[C@@H](C)[C@@H](C)OC(=O)Nc5cnc(CCOP(=O)(O)O)nc5)cc4s3)cc(C)cc2n1 satisfied

----------
Quick reference for IC50 among some compounds
# test-system: human PAR4 (Homo sapiens, UniProt Q96RI0)
# Sequence (Q96RI0 18-385): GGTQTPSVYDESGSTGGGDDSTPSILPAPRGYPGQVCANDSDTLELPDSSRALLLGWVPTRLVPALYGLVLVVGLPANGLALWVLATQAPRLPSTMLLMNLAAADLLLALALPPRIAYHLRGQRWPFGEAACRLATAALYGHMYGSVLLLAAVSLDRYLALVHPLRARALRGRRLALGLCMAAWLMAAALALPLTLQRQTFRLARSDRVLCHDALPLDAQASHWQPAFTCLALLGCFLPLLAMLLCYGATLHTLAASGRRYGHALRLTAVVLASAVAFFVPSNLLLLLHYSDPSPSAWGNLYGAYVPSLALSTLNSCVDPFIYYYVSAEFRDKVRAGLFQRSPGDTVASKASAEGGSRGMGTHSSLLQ
# measurement-description: PAR4 FLIPR assay: antagonism of agonist-peptide-induced calcium mobilization in PAR4-expressing HEK293 cells
# experimental-conditions: H-Ala-Phe(4-F)-[…]NH2-induced intracellular calcium mobilization, 11-point curves
Entry format: amount then unit.

Below: 2 compounds and their reported IC50.
| molecule | property-measured | value-measured |
| --- | --- | --- |
| COCc1cnc2c(-c3nc4c(CN(C)C)cc(OC)cc4s3)cc(C)cc2n1 | IC50 | 25 nM |
| COc1cnc2c(-c3nc4cc(F)c(O[C@@H](C)[C@@H](C)OC(=O)Nc5cnc(NCC(C)(C)O)nc5)cc4s3)cc(C)cc2n1 | IC50 | 0.4 nM |

Give reported IC50 value for Cc1cc(-c2nc3c(Cl)cccc3s2)c2ncc(OC(F)F)nc2c1 8.1 nM

Give reported IC50 value for COc1cnc2c(-c3nc4c(C)cc(OC)nc4s3)cc(C)cc2n1 18 nM

Give reported IC50 value for COc1cnc2c(-c3nc4cc(F)c(OC[C@@H](C)OC(=O)Nc5cnc(C)c(CO)c5)cc4s3)cc(C)cc2n1 34 nM

Give reported IC50 value for COc1cnc2c(-c3nc4cc(F)c(O[C@@H](C)[C@@H](C)OC(=O)Nc5ccnc(CCO)c5)cc4s3)cc(C)cc2n1 5.2 nM

Give reported IC50 value for COc1cnc2c(-c3nc4c(Cl)c(C)c(OC)cc4s3)cc(C)cc2n1 10 nM

Give reported IC50 value for COCc1cnc2c(-c3nc4c(C)c(C)c(OCC(=O)OC)cc4s3)cc(C)cc2n1 1.2 nM
